Where do these numbers come from? They come from ChEMBL document CHEMBL1201862.

test system: RXF 631; test: NCI tumour cell line growth inhibition, 48 h
The source made the active and inactive calls. No stated cut-off is given here; in the data, active = GI50 up to about 1.1 µM and inactive = higher.
Outcomes: active, inactive

ON/N=C/c1cc2c(cc1Br)OCO2: inactive
CCN(CCCl)CCNc1c2ccccc2nc2ccc(OC)cc12: active
CC(=O)OCC1OC(N=[N+]=[N-])C(OC(C)=O)C(OC(C)=O)C1OC1OC(COC(C)=O)C(OC(C)=O)C(OC(C)=O)C1OC(C)=O (centres undefined): inactive
CCOC(=O)C1C(=O)CC(=O)C2CCCCC21 (centres undefined): inactive
CCCCCCCCCCCCCCCCCCCCCCC(=O)N[C@H]1CCc2cc(OC)c(OC)c(OC)c2-c2ccc(SC)c(=O)cc21: inactive
O=[N+]([O-])c1cc(/C=N\NS(=O)(=O)c2ccc(Cl)cc2)c(O)c([N+](=O)[O-])c1: inactive
C#CC1(O)CCC2[C@@H]3CCc4cc(Oc5nc(F)nc(-c6c7ccccc7c(SCC)n6CCC)n5)ccc4C3CC[C@@]21C (some centres undefined): inactive
O=C1CCC2(c3ccccc3)Nc3cc(Cl)ccc3N12 (centres undefined): inactive
CN1CCc2c1nc(-c1ccc([N+](=O)[O-])cc1)c1c2N(C)CC1: inactive

###

system: SN12C; assay: NCI tumour cell line growth inhibition, 48 h
Calls of active or inactive are those of the source. No stated cut-off is given here; in the data, active = GI50 up to about 1.1 µM and inactive = higher.
GI50 overview
measured-metric: GI50

CCN(CC)C(=O)C(C)n1cc(C)c(=O)[nH]c1=O (stereo not given): > 100 µM (inactive)
NC(=O)N/N=C(\Cc1nc2ccc(C(=O)c3ccccc3)cc2nc1O)C(=O)Nc1ccc(Br)cc1: > 100 µM (inactive)
CCOC(=O)C(CC(C)C)NC(=O)C(N)Cc1ccc(N(CCCl)CCCl)cc1 (stereo not given): 5.6 µM (inactive)
CCOP(=O)(OCC)C(c1ccc(F)cc1)N(C(=O)NC(F)(F)F)c1cccc(C(F)(F)F)c1 (stereo not given): > 100 µM (inactive)
COc1c(O)c(OC)c2oc(-c3ccc(O)cc3)c(OC)c(=O)c2c1O: 70.6 µM (inactive)

###

tested on: OVCAR-4; experiment: NCI tumour cell line growth inhibition, 48 h
The source made the active and inactive calls. Cut-off read from the data, not from the text of the source: active = GI50 up to about 1.1 µM and inactive = higher.
Items are presented alongside their recorded GI50.
measured-metric: GI50

COc1ccc(-c2cc(-c3ccc(Nc4ccnc5cc(Cl)ccc45)cc3)nc(N)c2C#N)c2ccccc12: > 100 µM (inactive)
CCCC(=O)OC1CC(n2cc(F)c(=O)[nH]c2=O)OC1CO (stereo not given): > 10 µM (inactive)
Nc1ccc2nc(Nc3ccc(Cl)c(Cl)c3)cnc2c1: 17 µM (inactive)
COc1cc(/C=C(\OC(C)=O)c2ccc3c(c2)OCO3)cc(OC)c1OC: 18.3 µM (inactive)
CCn1c(SCC(=O)N/N=C2\SCC(=O)N2c2ccc(C)cc2)nc2ccccc2c1=O: 18.2 µM (inactive)

###

tested on: K562; assay: NCI tumour cell line growth inhibition, 48 h
The source made the active and inactive calls. Rule as the data show it: active = GI50 up to about 1.1 µM and inactive = higher.
measured-metric: GI50

[N-]=[N+]=Nc1ccccc1-c1ccccc1[N+](=O)[O-]: 31.3 µM (inactive)
CSCSCC(CO)NC(=O)/C=C\c1c(C)[nH]c(=O)[nH]c1=O (configuration not stated): 5.2 µM (inactive)
CCN(CC)CCn1c(C(C)(C)C)nc2ccccc21: > 100 µM (inactive)
Cc1ccccc1-n1c(=O)nc2n(-c3ccc(C(C)(C)C)cc3)c3ccccc3cc-2c1=O: 37.8 µM (inactive)
CCOC(=O)C1(C(=O)OCC)C[C@H]2CON=C2[C@@H]1c1ccc(C(F)(F)F)cc1: 35.2 µM (inactive)
CCN1C(=O)/C(=C\Nc2ccccc2)S/C1=N/Nc1ncc(CC(=O)Nc2ccccc2C)s1: 43.6 µM (inactive)
Cc1c2c(OCC3CCCCO3)nn(C)c(=O)c2c(C)n1-c1ccccc1 (configuration not stated): 38.8 µM (inactive)
Cc1ccccc1C(=O)C#Cc1cn(C2CC(O)C(CO)O2)c(=O)[nH]c1=O (configuration not stated): 57 µM (inactive)
CC(=O)N(C(=O)CC(=O)N1N=C(c2ccccc2)C(/N=N/c2ccccc2[N+](=O)[O-])C1=O)c1ccc(Cl)cc1 (configuration not stated): > 10 µM (inactive)
CCOC(=O)CSc1nc(-c2ccc(OC)cc2)c(C#N)c(=O)[nH]1: > 100 µM (inactive)
O=C(O)CCN1CCN(CCC(=O)O)CCN(CCC(=O)O)CC1: 36.3 µM (inactive)
NC(=O)C(=O)N/N=C1/c2ccccc2CC1C1(O)C(=O)Nc2c(Cl)cc(Cl)cc21 (configuration not stated): 88.7 µM (inactive)
Nn1c(S)nnc1N/N=C1/C(=O)Nc2c(Cl)cc(Cl)cc21: 31.2 µM (inactive)
O=C(O)CCC(=O)c1ccc2sc3ccccc3c2c1: > 100 µM (inactive)
O=[N+]([O-])c1nccn1CC1OC(n2ccnc2[N+](=O)[O-])C(O)C(O)C1O (configuration not stated): > 100 µM (inactive)
COC(=O)N/N=c1\cc(C(=O)Nc2ccc(C)c(C)c2)oc2cc(O)ccc12: > 100 µM (inactive)
CCN(CC)C(=O)C(C)n1cc(C)c(=O)[nH]c1=O (configuration not stated): > 100 µM (inactive)
COc1cc(/C=C(\OC(C)=O)c2ccc3c(c2)OCO3)cc(OC)c1OC: 25.5 µM (inactive)
COc1ccc(-n2c(=O)c3nc(S)[nH]c3n(-c3ccc(OC)cc3)c2=S)cc1: > 100 µM (inactive)
COc1ccc(C2C(=O)C(Cl)N2Nc2nc(C)cc(O)n2)cc1OC (configuration not stated): 22 µM (inactive)
NCP(=O)(O)OCC(=O)O: > 100 µM (inactive)
ON/N=C/c1cc2c(cc1Br)OCO2: > 386 µM (inactive)

###

tested on: MCF7; assay: NCI tumour cell line growth inhibition, 48 h
Activity calls are given as the source filed them. Cut-off read from the data, not from the text of the source: active = GI50 up to about 1.1 µM and inactive = higher.
Possible outcomes: 1 (yes) = active, 0 (no) = inactive

O=C1Nc2ccccc2/C1=N/Nc1nc(-c2ccc(Cl)c(Cl)c2)cs1: 0 (no)
c1cc2nnc1SCCCSc1ccc(nn1)SCCCSc1ccc(nn1)SCCCS2: 0 (no)
CCC(=O)Nc1ccc(NCC(=O)Nc2ccc(OC)cc2)cc1: 0 (no)
C(=NCCN1CCOCC1)=NC1CCCCC1: 0 (no)
NC1CC(=O)c2sc(I)cc21 (stereo not drawn): 0 (no)
O=C(O)CCC(=O)Nc1ccc2ccccc2c1: 0 (no)
Oc1ccc(Cl)cc1C1=Nn2c(COc3ccc4c(c3)CCCC4)nnc2SC1: 0 (no)
CCCCOCCOCCOC1=C(Cl)C(=O)c2c(O)ccc(O)c2C1=O: 1 (yes)
CC1(c2cccs2)CC(c2cccs2)=C(C#N)C(=C(C#N)C#N)N1 (stereo not drawn): 0 (no)
Cc1cc2c(c(C(=O)NCC(=O)N[C@@H](C)C(=O)OCc3ccccc3)c1)Oc1c(cc(C)cc1C(=O)NCC(=O)N[C@@H](C)C(=O)OCc1ccccc1)S2: 0 (no)
COc1cc2c(cc1O)[C@]1(Cc3ccc4c(c3C1=O)OCO4)N(C)CC2: 0 (no)
COC(=O)c1csc(-c2nc(CCNC(=O)OC(C)(C)C)sc2Br)n1: 0 (no)
Oc1ccc(Cn2c(-c3ccc(O)cc3)nc3ccccc32)cc1: 0 (no)
COc1ccc(/N=N/C(=O)NC(CC(C)C)C(=O)NCC(=O)O)cc1 (stereo not drawn): 0 (no)
COc1ccc2c(c1)C/C(=C\c1ccc(O)c(OC)c1)C2=O: 0 (no)
O=C1c2ccccc2-c2ccc(N(Cc3ccc(Br)cc3)Cc3ccc(Br)cc3)cc21: 0 (no)
COc1ccc(C(c2ccc(OC)cc2)N2C(=O)CCC2C(=O)O)cc1 (stereo not drawn): 0 (no)
Cc1ccccc1-n1c(=O)nc2n(-c3ccc(C(C)(C)C)cc3)c3ccccc3cc-2c1=O: 0 (no)
CCN1C(=O)/C(=C\Nc2ccccc2)S/C1=N/Nc1ncc(CC(=O)Nc2ccccc2C)s1: 0 (no)
N#CCCN(CCC#N)c1ccc(/C=C2\N=C(c3ccccc3)N(c3ccccc3)C2=O)cc1: 0 (no)
COC(=O)C[C@](O)(CCCC(C)(C)O)C(=O)O[C@@H]1C(OC)=C[C@]23CCCN2CCc2cc4c(cc2[C@H]13)OCO4 [OMACETAXINE MEPESUCCINATE]: 1 (yes)
Cc1ccc(-c2nc3cc(Cl)ccc3[nH]2)cc1: 0 (no)
O=c1ccn(C2OC(CN(O)CCC3C(O)C(CO)OC3n3ccc(=O)[nH]c3=O)C(O)C2O)c(=O)[nH]1 (stereo not drawn): 0 (no)
Cc1c(C)c2ccc(O)cc2[nH]c1=O: 0 (no)
N#CC(CC(=O)O)=C(c1ccccc1)c1ccccc1: 0 (no)
CCOc1cccc(/C=N/N=C2\C(=O)Nc3c(Cl)cc(Cl)cc32)c1O: 0 (no)
O=C1c2c(O)cccc2C(C2OC(CO)C(O)C(O)C2O)c2cc(CO)cc(O)c21 (stereo not drawn): 0 (no)
CCCC(=O)OC1CC(n2cc(F)c(=O)[nH]c2=O)OC1CO (stereo not drawn): 1 (yes)
COc1cc2c(cc1O)C(Cc1ccc(OCc3ccccc3)c(OCc3ccccc3)c1)N(C(=O)NCCc1ccccc1)CC2 (stereo not drawn): 0 (no)
COc1cccc(O)c1-c1cc(=O)c2c(O)c(OC)c(OC)c(OC)c2o1: 0 (no)
C[n+]1c2ccccc2c(C(=O)Nc2ccc(S(=O)(=O)Nc3ccnn3-c3ccccc3)cc2)c2ccccc21: 0 (no)
O=C(c1ccccc1)N1C(=S)N(c2ccc([N+](=O)[O-])cc2)C(=N/c2ccccc2)/C1=N\c1ccccc1: 0 (no)
O=C(c1ccc(F)cc1)c1cccc(C(=O)c2ccc(F)cc2)n1: 0 (no)
CC(C)=CCc1c(O)ccc2ccc(=O)oc12: 0 (no)
COc1ccc(OC)c(/C=C2/C(=O)N/C(=N\C(C)=O)N2C)c1: 0 (no)
CC[C@@H]1/C=C/C=C/C[C@H](C)[C@@H](O)[C@](C)(O)C(=O)[C@H](C)[C@@H](O)[C@H](C)C(=O)[C@H](C)[C@@H](O)[C@H](C)/C=C/C(=O)O[C@H]2[C@@H](C)[C@@H](CC1)O[C@]1(O[C@H](CC(C)O)[C@H](C)CC1=O)[C@@H]2C (stereo partly drawn): 1 (yes)
Cc1ccc(S[C@@](C=O)(NC(=O)OCc2ccccc2)C(F)(F)F)cc1: 0 (no)
COc1ccccc1N1C(=O)CC(=O)N(C(=O)CCCCCCCCC(=O)N2C(=O)CC(=O)N(c3ccccc3OC)C2=S)C1=S: 0 (no)
